Ref: ChEMBL document CHEMBL1138036

System under test: RyR1/FKBP12 (Oryctolagus cuniculus)
Experimental protocol: Agonist like activity at skeletal junction sarcoplasmic reticulum RyR1/FKBP12 complex assessed as increase in [3H]ryanodine binding
Measure name: EC50

O=C1CCc2ccc(c(I)c2)Oc2cc(cc(Br)c2O)CCN1; 28.6 µM
Nc1cc2ccc1Oc1cc(cc(Br)c1O)CCNC(=O)CC2; 33 µM
O=C1CCNC(=O)CCc2ccc(c([N+](=O)[O-])c2)Oc2cc(cc(Br)c2O)CCN1; 24 µM
[N-]=[N+]=Nc1ccc(I)cc1C(=O)NCCCC[C@H]1CC(=O)NCCc2cc(Br)c(O)c(c2)Oc2cc(Br)c(cc2Br)CCC(=O)N1; 6.5 µM
Nc1cc2ccc1Oc1cc(cc(Br)c1O)CCNC(=O)CCNC(=O)CC2; 21 µM
O=C1CCc2ccc(cc2)Oc2cc(cc(Br)c2O)CCN1; > 100 µM
COC(=O)c1cc(I)ccc1N=[N+]=[N-]; > 100 µM
O=C1CCc2ccc(c(Br)c2)Oc2cc(cc(Br)c2O)CCN1; 10.9 µM
O=C1CCc2ccc(c([N+](=O)[O-])c2)Oc2cc(cc(Br)c2O)CCN1; 20.9 µM
O=C1CCc2cc(Br)c(cc2Br)Oc2cc(cc(Br)c2O)CCN1; > 100 µM
[N-]=[N+]=Nc1ccc(I)cc1C(=O)NCCCC[C@H]1CC(=O)NCCc2cc(Br)c(O)c(c2)Oc2ccc(cc2Br)CCC(=O)N1; > 100 µM
[N-]=[N+]=Nc1cc2ccc1Oc1cc(cc(Br)c1O)CCNC(=O)CCNC(=O)CC2; 20 µM
